test_description: Stability of the compound in human plasma assessed as half life at 1 uM by LC-MS/MS analysis
Format: ADME, cell-free
reported_property: half-life at 1 µM (min)
Give bare numbers, in min.

compound | half-life at 1 µM [min]
O=C1CCC(N2Cc3ccc(S(=O)(=O)n4ccc(F)n4)cc3C2=O)C(=O)N1 (stereo unspecified) | 115
O=C1CCC(N2Cc3ccc(S(=O)(=O)n4ccc(C(F)(F)F)n4)cc3C2=O)C(=O)N1 (stereo unspecified) | 14
Cc1cn(S(=O)(=O)c2ccc3c(c2)C(=O)N(C2CCC(=O)NC2=O)C3)c(=O)[nH]c1=O (stereo unspecified) | 239

Could you report half-life at 1 µM for every entry in the following list?
1. O=C1CCC(N2Cc3ccc(S(=O)(=O)n4cc(C(F)(F)F)cn4)cc3C2=O)C(=O)N1 (stereo unspecified)
2. O=C1CCC(N2Cc3ccc(S(=O)(=O)n4cnc(C(F)(F)F)c4)cc3C2=O)C(=O)N1 (stereo unspecified)

Response:
[10, 6.5]
